STUDY_SYSTEM: UniProtKB Q13464
TEST: ROCK-I inhibition assay (radioactive enzyme assay, MBP substrate)
Assay type: biochemical
ASSAY_CONTEXT: Table 6; enzyme inhibition data (Ki)
Ki by entry:
REPORTED_METRIC: Ki

1. O=C(O)c1cc(-c2ccnc3[nH]ccc23)c[nH]1 : > 4 µM
2. CC1CCC(Nc2c(Cl)cnc3[nH]ccc23)CC1 (centres unmarked) : 0.5 to 5 µM
3. Cc1cccc(-c2ccnc3[nH]ccc23)c1C : 0.5 to 5 µM
4. O=C(CNc1nc(-c2ccnc3[nH]ccc23)ncc1F)NCC(F)(F)F : > 4 µM
5. CCOC(=O)C1CCN(C(=O)c2cc(-c3ccnc4[nH]ccc34)c[nH]2)CC1 : 0.5 to 5 µM
6. CCOc1ccccc1-c1ccnc2[nH]ccc12 : 0.5 to 5 µM
7. NC(=O)C1CCCN1C(=O)c1cc(-c2c(Cl)cnc3[nH]ccc23)c[nH]1 (centres unmarked) : > 4 µM
8. CS(=O)(=O)Nc1ccccc1-c1ccnc2[nH]ccc12 : > 4 µM

----------
STUDY_SYSTEM: JAK2 (Homo sapiens, UniProt O60674)
Sequence (O60674 whole entry): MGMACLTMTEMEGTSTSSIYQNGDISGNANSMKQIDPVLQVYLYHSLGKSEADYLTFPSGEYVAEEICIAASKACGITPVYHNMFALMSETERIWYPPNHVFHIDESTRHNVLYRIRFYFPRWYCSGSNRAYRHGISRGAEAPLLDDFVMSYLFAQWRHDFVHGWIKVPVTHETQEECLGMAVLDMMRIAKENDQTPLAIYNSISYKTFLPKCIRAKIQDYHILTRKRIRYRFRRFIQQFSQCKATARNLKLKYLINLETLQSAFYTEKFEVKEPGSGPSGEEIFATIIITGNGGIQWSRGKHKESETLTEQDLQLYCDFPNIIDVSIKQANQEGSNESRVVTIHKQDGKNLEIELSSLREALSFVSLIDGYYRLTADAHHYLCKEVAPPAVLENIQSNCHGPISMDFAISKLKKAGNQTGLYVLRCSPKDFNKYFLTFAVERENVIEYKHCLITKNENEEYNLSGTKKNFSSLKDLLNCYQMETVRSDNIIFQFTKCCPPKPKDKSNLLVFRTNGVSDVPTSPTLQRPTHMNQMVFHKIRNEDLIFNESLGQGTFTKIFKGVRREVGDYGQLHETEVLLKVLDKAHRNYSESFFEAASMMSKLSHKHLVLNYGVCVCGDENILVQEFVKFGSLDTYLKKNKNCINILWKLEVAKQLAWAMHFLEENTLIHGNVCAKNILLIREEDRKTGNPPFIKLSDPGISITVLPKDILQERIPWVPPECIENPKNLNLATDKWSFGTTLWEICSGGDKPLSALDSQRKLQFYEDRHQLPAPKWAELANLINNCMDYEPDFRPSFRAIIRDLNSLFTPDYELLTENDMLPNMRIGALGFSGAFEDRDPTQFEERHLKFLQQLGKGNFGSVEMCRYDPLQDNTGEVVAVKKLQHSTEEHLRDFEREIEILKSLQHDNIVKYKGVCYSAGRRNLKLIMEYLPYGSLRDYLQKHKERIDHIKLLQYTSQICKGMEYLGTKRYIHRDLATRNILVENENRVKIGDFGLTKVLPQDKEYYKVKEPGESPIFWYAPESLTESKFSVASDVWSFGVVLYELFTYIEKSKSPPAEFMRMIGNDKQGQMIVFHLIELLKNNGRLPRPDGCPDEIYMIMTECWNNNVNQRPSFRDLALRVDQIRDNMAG
TEST: JAK2 inhibition assay (as Example 3 with JAK-2 enzyme)
Type: biochemical
ASSAY_CONTEXT: Table 6; enzyme inhibition data (Ki)
pKi: −log10 of the molar value.
REPORTED_METRIC: pKi

1. CCOc1cccc(-c2ccnc3[nH]ccc23)c1 : > 6.30
2. CCN(Cc1ccncc1)C(=O)c1cc(-c2c(Cl)cnc3[nH]ccc23)c[nH]1 : > 6.30
3. N#CCCN(CC(F)(F)F)C(=O)c1csc(-c2ccnc3[nH]ccc23)n1 : > 6.30
4. c1cc(-c2cn[nH]c2)c2cc[nH]c2n1 : > 6.30
5. CCN(CCO)C(=O)c1cc(-c2ccnc3[nH]ccc23)c[nH]1 : > 6.30
6. CCN(CCO)C(=O)c1cc(-c2c(Cl)cnc3[nH]ccc23)c[nH]1 : > 6.30
7. CC1CCCC(Nc2c(Cl)cnc3[nH]ccc23)C1 (stereo not shown) : > 6.30
8. CCOC(=O)C1CCN(C(=O)c2cc(-c3ccnc4[nH]ccc34)c[nH]2)CC1 : 5.30 to 6.30
9. O=C(c1cc(-c2ccnc3[nH]ccc23)c[nH]1)N1CCCC(O)C1 (stereo not shown) : 5.30 to 6.30
10. O=C(CC(F)(F)F)N1CC[C@@H](Nc2c(Cl)cnc3[nH]ccc23)C1 : > 6.30

----------
STUDY_SYSTEM: JAK3 (Homo sapiens, UniProt P52333)
Sequence (P52333 1-1124): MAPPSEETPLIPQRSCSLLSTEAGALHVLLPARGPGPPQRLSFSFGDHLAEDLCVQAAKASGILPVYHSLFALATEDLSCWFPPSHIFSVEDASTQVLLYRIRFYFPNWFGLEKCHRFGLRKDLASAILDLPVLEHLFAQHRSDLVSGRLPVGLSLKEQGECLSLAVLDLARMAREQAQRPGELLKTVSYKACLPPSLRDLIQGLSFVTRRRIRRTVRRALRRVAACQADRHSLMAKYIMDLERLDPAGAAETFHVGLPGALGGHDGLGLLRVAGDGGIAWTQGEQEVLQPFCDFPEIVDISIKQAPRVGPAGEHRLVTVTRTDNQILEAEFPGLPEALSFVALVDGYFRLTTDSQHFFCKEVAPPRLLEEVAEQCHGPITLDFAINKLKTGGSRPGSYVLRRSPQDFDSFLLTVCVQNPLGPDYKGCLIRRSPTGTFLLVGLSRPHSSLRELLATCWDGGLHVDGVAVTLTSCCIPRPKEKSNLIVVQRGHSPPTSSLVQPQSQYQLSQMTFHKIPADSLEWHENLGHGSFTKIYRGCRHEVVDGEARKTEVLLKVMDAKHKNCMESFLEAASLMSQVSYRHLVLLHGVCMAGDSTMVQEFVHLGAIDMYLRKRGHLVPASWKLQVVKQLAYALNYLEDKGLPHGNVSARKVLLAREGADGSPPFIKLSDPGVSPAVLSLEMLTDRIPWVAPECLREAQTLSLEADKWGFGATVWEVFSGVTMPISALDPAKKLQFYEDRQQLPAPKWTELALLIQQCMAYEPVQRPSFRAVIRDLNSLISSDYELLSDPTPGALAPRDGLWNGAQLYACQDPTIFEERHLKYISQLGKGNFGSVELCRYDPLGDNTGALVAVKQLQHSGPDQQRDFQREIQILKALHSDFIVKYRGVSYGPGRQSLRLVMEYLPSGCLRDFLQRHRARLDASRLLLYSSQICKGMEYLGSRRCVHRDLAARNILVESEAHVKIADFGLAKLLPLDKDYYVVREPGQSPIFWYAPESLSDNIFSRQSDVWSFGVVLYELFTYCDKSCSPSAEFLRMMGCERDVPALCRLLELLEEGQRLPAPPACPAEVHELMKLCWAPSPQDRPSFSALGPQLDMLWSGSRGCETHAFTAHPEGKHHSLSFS
TEST: JAK3 inhibition assay (33P incorporation into poly(Glu)4Tyr)
Assay type: biochemical
ASSAY_CONTEXT: Table 6; enzyme inhibition data (Ki)
REPORTED_METRIC: Ki

1. Cc1ccc(F)c(-c2ccnc3[nH]ccc23)c1Cl : 500 to 5000 nM
2. O=C(c1cc(-c2ccnc3[nH]ccc23)c[nH]1)N1CCCC1CO (centres unmarked) : 500 to 5000 nM
3. CC(C)(C)OC(=O)n1cccc1-c1c(Cl)cnc2[nH]ccc12 : > 5000 nM
4. N#Cc1ccccc1-c1ccnc2[nH]ccc12 : 500 to 5000 nM
5. CCCN(CC(F)(F)F)C(=O)c1cc(-c2c(F)cnc3[nH]ccc23)c[nH]1 : < 500 nM
6. c1ccc(Oc2ccccc2-c2ccnc3[nH]ccc23)cc1 : > 5000 nM
7. N#CCCN(CCC(F)(F)F)C(=O)c1cc(-c2c(F)cnc3[nH]ccc23)c[nH]1 : < 500 nM
8. CC1CCCCN1C(=O)c1csc(-c2ccnc3[nH]ccc23)n1 (centres unmarked) : < 500 nM
9. O=C(c1cc(-c2c(Cl)cnc3[nH]ccc23)c[nH]1)N1CCCC1C(F)(F)F (centres unmarked) : < 500 nM
10. COc1ccc(OC)c(-c2ccnc3[nH]ccc23)c1 : > 5000 nM
11. N#CC1CCCN1C(=O)c1cc(-c2c(Cl)cnc3[nH]ccc23)c[nH]1 (centres unmarked) : < 500 nM

----------
STUDY_SYSTEM: ROCK I (Homo sapiens, UniProt Q13464)
Sequence (Q13464 whole entry): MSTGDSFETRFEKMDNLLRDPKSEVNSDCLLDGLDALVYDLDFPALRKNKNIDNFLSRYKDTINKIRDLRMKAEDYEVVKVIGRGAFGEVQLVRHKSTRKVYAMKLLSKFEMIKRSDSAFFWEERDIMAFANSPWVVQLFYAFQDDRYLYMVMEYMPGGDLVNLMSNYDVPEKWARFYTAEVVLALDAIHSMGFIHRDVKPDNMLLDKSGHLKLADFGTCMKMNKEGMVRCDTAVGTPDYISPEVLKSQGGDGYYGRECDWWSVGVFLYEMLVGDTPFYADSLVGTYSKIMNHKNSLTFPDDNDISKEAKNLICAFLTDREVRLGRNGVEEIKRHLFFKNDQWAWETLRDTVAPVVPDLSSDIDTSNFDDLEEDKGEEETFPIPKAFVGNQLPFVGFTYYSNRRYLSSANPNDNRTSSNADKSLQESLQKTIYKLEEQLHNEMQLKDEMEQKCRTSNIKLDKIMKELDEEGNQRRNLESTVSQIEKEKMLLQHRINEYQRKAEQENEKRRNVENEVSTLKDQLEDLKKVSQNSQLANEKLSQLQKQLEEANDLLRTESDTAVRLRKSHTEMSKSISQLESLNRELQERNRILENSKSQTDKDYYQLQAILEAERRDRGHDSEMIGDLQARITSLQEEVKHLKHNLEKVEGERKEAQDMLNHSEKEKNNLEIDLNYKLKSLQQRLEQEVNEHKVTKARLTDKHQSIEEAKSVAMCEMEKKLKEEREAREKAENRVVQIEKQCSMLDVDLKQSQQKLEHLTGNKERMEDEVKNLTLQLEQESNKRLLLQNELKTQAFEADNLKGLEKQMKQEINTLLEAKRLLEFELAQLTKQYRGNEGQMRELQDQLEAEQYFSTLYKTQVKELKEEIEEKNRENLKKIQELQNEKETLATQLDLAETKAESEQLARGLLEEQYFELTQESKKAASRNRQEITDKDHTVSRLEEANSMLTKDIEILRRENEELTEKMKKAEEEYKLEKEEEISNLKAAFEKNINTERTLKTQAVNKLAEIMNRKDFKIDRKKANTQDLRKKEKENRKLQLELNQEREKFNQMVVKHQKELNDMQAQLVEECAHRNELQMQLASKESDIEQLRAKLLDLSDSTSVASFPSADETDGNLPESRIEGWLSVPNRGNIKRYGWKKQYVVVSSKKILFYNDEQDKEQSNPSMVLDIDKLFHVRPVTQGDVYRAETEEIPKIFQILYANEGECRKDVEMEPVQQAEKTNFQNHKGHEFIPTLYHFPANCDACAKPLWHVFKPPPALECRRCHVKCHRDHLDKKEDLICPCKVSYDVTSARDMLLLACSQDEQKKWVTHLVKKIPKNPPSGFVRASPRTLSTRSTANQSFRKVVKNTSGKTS
TEST: ROCK-I inhibition assay (radioactive enzyme assay, MBP substrate)
Assay type: biochemical
ASSAY_CONTEXT: Table 6; enzyme inhibition data (Ki)
REPORTED_METRIC: Ki

1. O=C(NC1CC1)c1cc(-c2c(Cl)cnc3[nH]ccc23)c[nH]1 : 0.5 to 5 µM
2. C[C@@H]1CCC[C@H](C)N1C(=O)c1csc(-c2ccnc3[nH]ccc23)n1 : < 0.5 µM
3. CC(C)(C)OC(=O)n1c(-c2c(Cl)cnc3[nH]ccc23)cc2ccccc21 : > 4 µM
4. CCCN(CCC)C(=O)c1cc(-c2c(Cl)cnc3[nH]ccc23)c[nH]1 : > 4 µM
5. CCCOc1ccccc1-c1ccnc2[nH]ccc12 : > 4 µM
6. CCCS(=O)(=O)N1CC[C@H](Nc2c(Cl)cnc3[nH]ccc23)C1 : > 4 µM
7. CCN(Cc1ccccn1)C(=O)c1ccc(-c2ccnc3[nH]ccc23)s1 : < 0.5 µM
8. CC(C)(C(=O)NCC(F)(F)F)c1cccc(-c2ccnc3[nH]ccc23)n1 : < 0.5 µM
9. Fc1cnc2[nH]ccc2c1-c1ccc(CN(CCC(F)(F)F)CC2CC2)o1 : 0.5 to 5 µM
10. O=C(c1csc(-c2ccnc3[nH]ccc23)n1)N(CC1CC1)CC(F)(F)F : < 0.5 µM
11. CCN(CCC#N)C(=O)c1cc(-c2c(Cl)cnc3[nH]ccc23)c[nH]1 : 0.5 to 5 µM
12. CN(C)C1CCN(C(=O)c2cc(-c3c(Cl)cnc4[nH]ccc34)c[nH]2)C1 (stereo not shown) : > 4 µM
13. Nc1ncccc1-c1ccnc2[nH]ccc12 : > 4 µM
14. CCN(Cc1ccncc1)C(=O)c1cc(-c2ccnc3[nH]ccc23)c[nH]1 : < 0.5 µM
15. Fc1ccc(-c2ccnc3[nH]ccc23)c(F)c1 : 0.5 to 5 µM
16. N#CCCN(Cc1ccccc1)C(=O)c1ccc(-c2ccnc3[nH]ccc23)s1 : < 0.5 µM
17. CCNC(=O)c1ccccc1-c1ccnc2[nH]ccc12 : > 4 µM
18. O=C(NC1CC1)c1cc(-c2ccnc3[nH]ccc23)c[nH]1 : < 0.5 µM
19. O=C(NCCC(F)(F)F)c1cccc(-c2ccnc3[nH]ccc23)c1 : 0.5 to 5 µM
20. Cc1ccc(-c2c(Cl)cnc3[nH]ccc23)s1 : 0.5 to 5 µM
21. O=C(NCC(F)(F)F)[C@@H]1CCCN1c1nc(-c2ccnc3[nH]ccc23)ncc1F : > 4 µM
22. O=S(=O)(C1CC1)N1CC[C@@H](Nc2c(Cl)cnc3[nH]ccc23)C1 : > 4 µM
23. CCN(Cc1ccccn1)C(=O)c1cc(-c2c(Cl)cnc3[nH]ccc23)c[nH]1 : > 4 µM
24. CC(C)CN(C)C(=O)c1ccc(-c2ccnc3[nH]ccc23)s1 : < 0.5 µM
25. C#CCN(C)C(=O)c1cc(-c2ccnc3[nH]ccc23)c[nH]1 : < 0.5 µM
26. c1cc(-c2cn[nH]c2)c2cc[nH]c2n1 : < 0.5 µM
27. CCN(CCO)C(=O)c1cc(-c2ccnc3[nH]ccc23)c[nH]1 : < 0.5 µM
28. CSc1ccccc1-c1ccnc2[nH]ccc12 : 0.5 to 5 µM
29. COc1ccc(OC)c(Nc2c(Cl)cnc3[nH]ccc23)c1 : > 4 µM
30. CCCCOc1ccccc1-c1ccnc2[nH]ccc12 : > 4 µM
31. CCC(=O)N1CCCC(Nc2c(Cl)cnc3[nH]ccc23)C1 (stereo not shown) : > 4 µM
